Overview of reported shrunken log2 fold change across a group of sequences:
test system: Escherichia coli TOP10; experiment: shrunken log2 fold change of peptide-encoding DNA abundance (4.5 h post-induction vs induction); higher = less antimicrobial activity (less host growth inhibition); conditions: time post-induction: 4.5 h; library: site-saturation at positions 5, 18, 19, 20
Answer with a bare number; do not write a unit.

Here is how some sequences turned out for shrunken log2 fold change.
| SEQUENCE_DATA | shrunken log2 fold change |
| --- | --- |
| RRIRRRPPRLPRPRPRPWMDPRP | -0.196 |
| RRIRARPPRLPRPRPRPKFAPRP | 0.306 |
| RRIRNRPPRLPRPRPRPQIAPRP | -0.155 |
| RRIRGRPPRLPRPRPRPTSQPRP | 0.87 |

Query string: Requested field: shrunken log2 fold change. Item: RRIRERPPRLPRPRPRPWMKPRP
Result string: -0.353

Query string: Then this sequence: RRIRRRPPRLPRPRPRPSEGPRP
Result string: 0.163

###

tested on: Escherichia coli TOP10; assay: shrunken log2 fold change of peptide-encoding DNA abundance (4.5 h post-induction vs induction); higher = less antimicrobial activity (less host growth inhibition); conditions: time post-induction: 4.5 h; library: site-saturation at positions 5, 18, 19, 20
MEASURED_ENDPOINT: shrunken log2 fold change
// keep it numeric: no unit symbol after the value

Consider the following illustrative entries.
| SEQUENCE_DATA | shrunken log2 fold change |
| --- | --- |
| RRIRNRPPRLPRPRPRPRYSPRP | -0.309 |
| RRIRERPPRLPRPRPRPVFWPRP | 0.39 |

Next, consider the following sequence.
Query string: Returns the measured shrunken log2 fold change for the input sequence. Input: RRIRGRPPRLPRPRPRPHPRPRP
Result string: 0.839

###

tested on: Escherichia coli TOP10; test: shrunken log2 fold change of peptide-encoding DNA abundance (4.5 h post-induction vs induction); higher = less antimicrobial activity (less host growth inhibition); details: time post-induction: 4.5 h; library: site-saturation at positions 5, 18, 19, 20
MEASURED_ENDPOINT: shrunken log2 fold change
Form field (numeric): enter value without unit.

Worked set:
| SEQUENCE_DATA | EXPERIMENTAL_TARGET | shrunken log2 fold change |
| --- | --- | --- |
| RRIRDRPPRLPRPRPRPIHVPRP | Escherichia coli TOP10 | -0.554 |
| RRIRIRPPRLPRPRPRPGMGPRP | Escherichia coli TOP10 | 0.132 |
| RRIRVRPPRLPRPRPRPDQIPRP | Escherichia coli TOP10 | -0.0895 |
| RRIRGRPPRLPRPRPRPKFLPRP | Escherichia coli TOP10 | 0.267 |
| RRIRPRPPRLPRPRPRPEFIPRP | Escherichia coli TOP10 | -0.117 |
| RRIRMRPPRLPRPRPRPHVLPRP | Escherichia coli TOP10 | -0.00145 |
| RRIRARPPRLPRPRPRPDHWPRP | Escherichia coli TOP10 | 0.0446 |
| RRIRDRPPRLPRPRPRPEGEPRP | Escherichia coli TOP10 | -0.0124 |
| RRIRYRPPRLPRPRPRPPKIPRP | Escherichia coli TOP10 | 0.152 |
| RRIRPRPPRLPRPRPRPMEFPRP | Escherichia coli TOP10 | 0.00564 |

Query string: Consider the sequence shown here: RRIRQRPPRLPRPRPRPYIPPRP What is its recorded shrunken log2 fold change?
Result string: -0.619

Query string: Repeat for the following sequence: RRIRPRPPRLPRPRPRPKDIPRP
Result string: -0.801

Query string: // repeat for RRIRDRPPRLPRPRPRPIKVPRP and report
Result string: 0.00881

Query string: Now this one: RRIRCRPPRLPRPRPRPPPNPRP
Result string: 1.27

Query string: Same again, this time with RRIRHRPPRLPRPRPRPHLCPRP
Result string: -0.0468

Query string: RRIRFRPPRLPRPRPRPPGEPRP ?
Result string: 0.421

Query string: # iterate: RRIRQRPPRLPRPRPRPIPAPRP
Result string: 0.214

Query string: Same question, RRIRFRPPRLPRPRPRPFAQPRP this time
Result string: -0.263

Query string: Note, next up: RRIRWRPPRLPRPRPRPRCQPRP
Result string: -0.0289

Query string: Please do the same for RRIRRRPPRLPRPRPRPHKGPRP as well.
Result string: 0.221

Query string: Note, next up: RRIRKRPPRLPRPRPRPLLGPRP
Result string: 0.628

Query string: Follow-up entry: RRIRYRPPRLPRPRPRPGHWPRP
Result string: -0.135

Query string: For RRIRYRPPRLPRPRPRPRIRPRP then?
Result string: 0.0291

Query string: Could you do the same for RRIRPRPPRLPRPRPRPQTMPRP , please?
Result string: 0.235

Query string: And for RRIRVRPPRLPRPRPRPCVGPRP ?
Result string: 0.00147

Query string: Input RRIRYRPPRLPRPRPRPSMFPRP
Result string: -1.02

Query string: Then this sequence: RRIRVRPPRLPRPRPRPIMCPRP
Result string: 0.0128

Query string: Moving on to RRIRGRPPRLPRPRPRPKKNPRP
Result string: 0.778

Query string: Consider next the sequence RRIRQRPPRLPRPRPRPPSVPRP in the same way.
Result string: 0.0958

Query string: Okay, and RRIRFRPPRLPRPRPRPRCNPRP ?
Result string: -0.0427

Query string: Next up: RRIRMRPPRLPRPRPRPVIFPRP
Result string: -0.237

###

Measured shrunken log2 fold change accompanies every entry in the list below.
system: Escherichia coli TOP10; assay: shrunken log2 fold change of peptide-encoding DNA abundance (4.5 h post-induction vs induction); higher = less antimicrobial activity (less host growth inhibition); conditions: time post-induction: 4.5 h; library: site-saturation at positions 5, 18, 19, 20
Number only, please.

| SEQUENCE_DATA | shrunken log2 fold change |
| --- | --- |
| RRIRNRPPRLPRPRPRPHAWPRP | -0.0119 |
| RRIRDRPPRLPRPRPRPLQFPRP | 0.0246 |
| RRIRSRPPRLPRPRPRPVNNPRP | -0.363 |
| RRIRHRPPRLPRPRPRPPNHPRP | -0.442 |
| RRIRWRPPRLPRPRPRPLLDPRP | 0.0164 |
| RRIRKRPPRLPRPRPRPSRFPRP | 1.06 |
| RRIRIRPPRLPRPRPRPPLKPRP | -0.105 |
| RRIRWRPPRLPRPRPRPEHFPRP | 0.00426 |
| RRIRPRPPRLPRPRPRPTMSPRP | 0.0176 |
| RRIRERPPRLPRPRPRPKGKPRP | -0.0014 |

Query string: Suppose we examine the sequence RRIRNRPPRLPRPRPRPLEEPRP ; what shrunken log2 fold change value has been reported?
Result string: 0.216

Query string: Another: RRIRYRPPRLPRPRPRPYCLPRP
Result string: -1.15

Query string: And what about the sequence RRIRTRPPRLPRPRPRPWQLPRP ?
Result string: -0.189

Query string: Next record, please: RRIRFRPPRLPRPRPRPVAFPRP
Result string: -0.141

###

tested on: Escherichia coli TOP10; assay: shrunken log2 fold change of peptide-encoding DNA abundance (4.5 h post-induction vs induction); higher = less antimicrobial activity (less host growth inhibition); conditions: time post-induction: 4.5 h; library: site-saturation at positions 5, 18, 19, 20
Quick list: shrunken log2 fold change per entry.
API note: the answer field is a bare number with no unit suffix.

Recorded shrunken log2 fold change, per entry:
| SEQUENCE_DATA | EXPERIMENTAL_TARGET | shrunken log2 fold change |
| --- | --- | --- |
| RRIRCRPPRLPRPRPRPNYLPRP | Escherichia coli TOP10 | -0.797 |
| RRIRQRPPRLPRPRPRPDMTPRP | Escherichia coli TOP10 | -0.129 |
| RRIRGRPPRLPRPRPRPHANPRP | Escherichia coli TOP10 | 0.361 |
| RRIRHRPPRLPRPRPRPHRRPRP | Escherichia coli TOP10 | 0.0762 |
| RRIRTRPPRLPRPRPRPRMDPRP | Escherichia coli TOP10 | -0.38 |

Attention now shifts to the item below.
Query string: Recorded shrunken log2 fold change for RRIRSRPPRLPRPRPRPEQEPRP , please?
Result string: 0.0257

###

tested on: Escherichia coli TOP10; experiment: shrunken log2 fold change of peptide-encoding DNA abundance (4.5 h post-induction vs induction); higher = less antimicrobial activity (less host growth inhibition); details: time post-induction: 4.5 h; library: site-saturation at positions 5, 18, 19, 20;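 also: peptides expressed intracellularly from a pBAD plasmid library in pooled LB shake-flask culture, induced with 0.3% L-arabinose, DNA abundance read by NGS, three biological replicates, DESeq2 with apeglm shrinkage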
// values below are reported shrunken log2 fold change

Observe how each entry below is paired with its result.
| SEQUENCE_DATA | shrunken log2 fold change |
| --- | --- |
| RRIRPRPPRLPRPRPRPEEYPRP | 0.00398 |
| RRIRFRPPRLPRPRPRPKGWPRP | 0.589 |
| RRIRGRPPRLPRPRPRPVSYPRP | 0.291 |
| RRIRKRPPRLPRPRPRPQPTPRP | 0.5 |
| RRIRTRPPRLPRPRPRPLQVPRP | -0.219 |
| RRIRLRPPRLPRPRPRPKEYPRP | -0.567 |
| RRIRERPPRLPRPRPRPEQDPRP | -0.0751 |
| RRIRRRPPRLPRPRPRPESFPRP | 0.0965 |

Query string: // returns reported shrunken log2 fold change for input RRIRSRPPRLPRPRPRPWYGPRP
Result string: -0.933

Query string: Next entry: RRIRFRPPRLPRPRPRPRYPPRP
Result string: -0.38

Query string: // repeat for RRIRGRPPRLPRPRPRPVKMPRP and report
Result string: 0.127
